Ref: the supplement of paper PMC10201428

B1: library; a variant is named by its letters at N, in order (parent)
chain: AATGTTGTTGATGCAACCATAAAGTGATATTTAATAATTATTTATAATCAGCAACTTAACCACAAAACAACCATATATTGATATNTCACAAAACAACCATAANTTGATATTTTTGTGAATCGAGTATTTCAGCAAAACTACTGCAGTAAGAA

Variants of: B1
Assay: relative integration efficiency (T-LR orientation) vs wild-type transposon end (log2 (normalized fold change)); transposon end mutated: left end; higher = more efficient transposition
Experimental Setup: with VchCAST RNA-guided transposition machinery (E. coli BL21(DE3) host, lacZ target)
Parameter Measured: relative integration efficiency (log2)
Could you keep your reply to the number by itself?

Query: Query (variant): TA G24A T30A T76A T78A T84A C87A A102T T111C T113C ; field requested: relative integration efficiency (log2)
Reply: -0.493

Query: Find the recorded relative integration efficiency (log2) belonging to CG G80A and report it.
Reply: -0.967
